Biological target: KDM5A (Homo sapiens, UniProt P29375)
Construct: C-terminal FLAG-tagged KDM5A^1-1090 was purchased from BPS Biosciences; FLAG (C); purchased BPS Biosciences
Sequence (P29375 1-1090): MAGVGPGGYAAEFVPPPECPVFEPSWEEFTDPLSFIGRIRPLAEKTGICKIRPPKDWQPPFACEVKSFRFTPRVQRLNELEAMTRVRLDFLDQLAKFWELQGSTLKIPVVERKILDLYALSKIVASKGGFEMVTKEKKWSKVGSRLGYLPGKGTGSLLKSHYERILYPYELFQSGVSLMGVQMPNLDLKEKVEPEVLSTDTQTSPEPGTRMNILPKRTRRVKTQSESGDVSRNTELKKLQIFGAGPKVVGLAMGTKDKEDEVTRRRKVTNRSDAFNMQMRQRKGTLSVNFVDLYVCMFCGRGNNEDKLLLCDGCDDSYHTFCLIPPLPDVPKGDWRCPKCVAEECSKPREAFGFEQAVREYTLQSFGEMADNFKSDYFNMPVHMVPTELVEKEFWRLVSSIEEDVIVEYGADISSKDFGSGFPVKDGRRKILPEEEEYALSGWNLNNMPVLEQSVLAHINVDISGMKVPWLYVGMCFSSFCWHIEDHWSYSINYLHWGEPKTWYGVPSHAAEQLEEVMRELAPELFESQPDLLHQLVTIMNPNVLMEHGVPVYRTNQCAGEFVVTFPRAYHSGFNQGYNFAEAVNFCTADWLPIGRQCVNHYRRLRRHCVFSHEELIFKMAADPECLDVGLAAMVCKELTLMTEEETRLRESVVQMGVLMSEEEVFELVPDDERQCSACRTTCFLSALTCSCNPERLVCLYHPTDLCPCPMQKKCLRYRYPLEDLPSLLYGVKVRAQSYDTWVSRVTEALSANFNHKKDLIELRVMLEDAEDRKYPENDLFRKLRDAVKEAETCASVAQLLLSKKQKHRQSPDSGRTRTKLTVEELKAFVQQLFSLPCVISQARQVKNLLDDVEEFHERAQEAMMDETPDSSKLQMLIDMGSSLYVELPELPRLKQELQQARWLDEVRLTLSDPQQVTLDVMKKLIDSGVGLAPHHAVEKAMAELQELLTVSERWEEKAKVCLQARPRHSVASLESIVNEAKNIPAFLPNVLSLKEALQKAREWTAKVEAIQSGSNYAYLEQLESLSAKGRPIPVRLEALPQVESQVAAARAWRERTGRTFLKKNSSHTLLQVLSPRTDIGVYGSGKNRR
Assay: KDM5A Assay (SAMDI mass spectrometry demethylase assay)
Type: biochemical
Conditions: C-terminal FLAG-tagged KDM5A 1-1090; class symbols; read-out: 5A IC50
pIC50: −log10 of the molar value.
READOUT_KIND: pIC50

Some compounds with known pIC50 results, for comparison:
Cc1c(Nc2cnccc2C(=O)O)cnn1C1CCCN(C2CCC2)CC1 (single isomer, unassigned) [Compound 117]; 5.00 to 6.00
O=C(O)c1ccncc1Nc1nn(C2CCOCC2)cc1-c1ccccc1 [Compound 72]; 6.00 to 7.00
COC(=O)c1ccncc1Nc1cnn(C2CCN(C(C)C)CC2)c1C [Compound 103]; 4.00 to 5.00
CNC(=O)c1cccc(-n2ncc(Nc3cnccc3C(=O)O)c2C)c1 [Compound 59]; 5.00 to 6.00

Now turn to the next compound.
Annotate the compound Cn1cc(-c2ccc(F)cc2)c(Nc2cnccc2C(=O)O)n1 [Compound 7] with its measured pIC50.
6.00 to 7.00

###

Listed below: pIC50 values for each entry.
Target: KDM5A (Homo sapiens, UniProt P29375)
Construct: C-terminal FLAG-tagged KDM5A^1-1090 was purchased from BPS Biosciences; FLAG (C); purchased BPS Biosciences
Test: KDM5A Assay (SAMDI mass spectrometry demethylase assay)
Format: biochemical
Conditions: C-terminal FLAG-tagged KDM5A 1-1090; class symbols; read-out: 5A IC50
Description: C-terminal FLAG-tagged KDM5A^1-1090 was purchased from BPS Biosciences. Peptides were synthesized by BioPeptide and all other reagents were purchased from Sigma-Aldrich at the highest level of purity possible. Assays were performed in a 50 μL volume in 384-well V-bottom polypropylene microplates (Greiner) at 25° C. […] Reactions proceeded for 150 minutes and were stopped by the addition of 5 μL of formic acid (f.c.=0.5%) using a Multidrop Combi and then analyzed by SAMDI Tech Inc. […]
pIC50: −log10 of the molar value.

Some compounds with known pIC50 results, for comparison:
Cc1nn([C@@H]2CCN(C)C2)cc1Nc1cnccc1C(=O)NCCO; 4.00 to 5.00
Cc1cnn(C2CCCN(CCN)C2)c1Nc1cnccc1C(=O)O (centres unmarked); 4.00 to 5.00
NCCn1nc(-c2ccccc2)cc1Nc1cnccc1C(=O)O; 5.00 to 6.00
Cc1n[nH]c(-c2ccccc2)c1Nc1cnccc1C(=O)O; 5.00 to 6.00

Now turn to the next compound.
Annotate the compound O=C(O)c1ccncc1Nc1nn(CCC(F)(F)F)cc1-c1ccccc1 with its measured pIC50.
7.00 to 9.00

###

molecular target: KDM4A (Homo sapiens); construct: N-terminal His-tagged KDM4A^1-350 was purchased from BPS Biosciences; His (N); purchased BPS Biosciences; assay: KDM4A Assay (SAMDI mass spectrometry demethylase assay); assay type: biochemical; conditions: N-terminal His-tagged KDM4A 1-350; class symbols; read-out: 4A IC50
Sequence (O75164 1-350): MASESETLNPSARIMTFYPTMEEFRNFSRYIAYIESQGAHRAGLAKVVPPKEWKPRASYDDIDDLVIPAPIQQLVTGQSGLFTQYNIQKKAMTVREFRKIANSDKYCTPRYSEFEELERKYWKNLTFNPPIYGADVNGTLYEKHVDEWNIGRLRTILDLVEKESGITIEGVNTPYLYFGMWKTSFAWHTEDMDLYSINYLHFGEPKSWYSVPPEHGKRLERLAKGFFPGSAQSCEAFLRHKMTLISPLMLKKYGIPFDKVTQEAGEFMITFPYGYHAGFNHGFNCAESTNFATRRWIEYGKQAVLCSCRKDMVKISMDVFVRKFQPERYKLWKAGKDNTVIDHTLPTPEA
pIC50: −log10 of the molar value.
READOUT_KIND: pIC50

Some compounds with known pIC50 results, for comparison:
O=C(O)c1ccncc1Nc1cc(-c2ccccc2)nn1[C@H]1CC[C@H](O)CC1; 5.00 to 6.00
Cc1cn(-c2ccccc2)c(Nc2cnccc2C(=O)O)n1; 6.00 to 7.00
Cn1cc(-c2ccc(F)cc2)c(Nc2cnccc2C(=O)O)n1; 6.00 to 7.00

Annotate the compound CN1CCN(CCn2cc(-c3ccccc3)c(Nc3cnccc3C(=O)O)n2)CC1 with its measured pIC50.
5.00 to 6.00

Annotate the compound Cc1c(Nc2cnccc2C(=O)O)cnn1C1CCCN(C)CC1 (centres unmarked) with its measured pIC50.
6.00 to 7.00

###

target: KDM5A (Homo sapiens); construct: C-terminal FLAG-tagged KDM5A^1-1090 was purchased from BPS Biosciences; FLAG (C); purchased BPS Biosciences; assay: KDM5A Assay (SAMDI mass spectrometry demethylase assay); assay type: biochemical; conditions: C-terminal FLAG-tagged KDM5A 1-1090; class symbols; read-out: 5A IC50
Listed below: IC50 values for each entry.

O=C(O)c1ccncc1Nc1nn(-c2ccccc2)cc1-c1ccncc1; 100 to 1000 nM

Annotate the molecule Cn1nc(Nc2cnccc2C(=O)O)cc1-c1ccccc1 with its measured IC50.
100 to 1000 nM

Annotate the molecule CCc1c(Nc2cnccc2C(=O)O)cnn1-c1ccccc1 with its measured IC50.
1000 to 10000 nM

Annotate the molecule Cc1c(Nc2cnccc2C(=O)O)cnn1C1CCN(C(=O)c2ccccc2)CC1 with its measured IC50.
1000 to 10000 nM

###

Molecular target: KDM4C (Homo sapiens, UniProt Q9H3R0)
Construct: N-terminal GST-tagged KDM4C^2-372 was purchased from BPS Biosciences; GST (N); purchased BPS Biosciences
Sequence (Q9H3R0 2-372): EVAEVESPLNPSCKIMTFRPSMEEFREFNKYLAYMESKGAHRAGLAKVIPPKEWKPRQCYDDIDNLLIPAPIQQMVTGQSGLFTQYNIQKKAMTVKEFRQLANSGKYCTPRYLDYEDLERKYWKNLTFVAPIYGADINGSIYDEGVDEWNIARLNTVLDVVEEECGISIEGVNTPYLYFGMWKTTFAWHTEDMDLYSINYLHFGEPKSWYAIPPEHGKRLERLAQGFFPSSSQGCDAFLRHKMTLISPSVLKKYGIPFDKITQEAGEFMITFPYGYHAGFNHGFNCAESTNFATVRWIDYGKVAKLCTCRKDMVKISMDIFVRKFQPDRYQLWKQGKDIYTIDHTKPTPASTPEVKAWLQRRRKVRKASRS
Assay: KDM4C Assay (SAMDI mass spectrometry demethylase assay)
Type: biochemical
Settings: N-terminal GST-tagged KDM4C 2-372; class symbols; read-out: 4C IC50
Experimental: N-terminal GST-tagged KDM4C^2-372 was purchased from BPS Biosciences. Peptides were synthesized by BioPeptide and all other reagents were purchased from Sigma-Aldrich at the highest level of purity possible. Assays were performed in a 50 μL volume in 384-well V-bottom polypropylene microplates (Greiner) at 25° C. […] Reactions proceeded for 150 minutes and were stopped by the addition of 5 μL of formic acid (f.c.=0.5%) using a Multidrop Combi and then analyzed by SAMDI Tech Inc. […]
Listed below: IC50 values for each entry.

COc1ccccc1-n1cc(C)c(Nc2cnccc2C(=O)O)n1 [Compound 63]; 100 to 1000 nM
Cc1nn(-c2ccccc2)c(C)c1Nc1cnccc1C(=O)O [Compound 77]; 100 to 1000 nM
O=C(O)c1ccncc1Nc1cc(-c2cccc(Cl)c2)n(C2CCC3(CC2)OCCO3)n1 [Compound 86]; 1000 to 10000 nM
COC(=O)c1ccncc1Nc1cnn(C2CCN(C3CCC3)CC2)c1C [Compound 95]; 10000 to 100000 nM
Cc1c(Nc2cnccc2C(=O)O)cnn1C1CCN(C2CN(C)C2)CC1 [Compound 92]; 100 to 1000 nM
O=C(O)c1ccncc1Nc1nn(CCC(F)(F)F)cc1-c1ccccc1 [Compound 73]; 100 to 1000 nM
Cc1nn(C2CCCN(C3CCC3)CC2)cc1Nc1cnccc1C(=O)O (single isomer, unassigned) [Compound 120]; 100 to 1000 nM
O=C(O)c1ccncc1Nc1cn(CCN2CCC(F)(F)CC2)nc1-c1ccccc1 [Compound 17]; 1000 to 10000 nM
Cc1nn(C2CCCN(C3CCC3)CC2)cc1Nc1cnccc1C(=O)O (single isomer, unassigned) [Compound 118]; 1000 to 10000 nM

Annotate the molecule CN(C)CCCn1cc(-c2ccccc2)c(Nc2cnccc2C(=O)O)n1 [Compound 51] with its measured IC50.
100 to 1000 nM

src = patent US20170291890A1
